Target: IGF1R (human) (UniProt P08069)
Sequence (P08069 whole entry, looked up): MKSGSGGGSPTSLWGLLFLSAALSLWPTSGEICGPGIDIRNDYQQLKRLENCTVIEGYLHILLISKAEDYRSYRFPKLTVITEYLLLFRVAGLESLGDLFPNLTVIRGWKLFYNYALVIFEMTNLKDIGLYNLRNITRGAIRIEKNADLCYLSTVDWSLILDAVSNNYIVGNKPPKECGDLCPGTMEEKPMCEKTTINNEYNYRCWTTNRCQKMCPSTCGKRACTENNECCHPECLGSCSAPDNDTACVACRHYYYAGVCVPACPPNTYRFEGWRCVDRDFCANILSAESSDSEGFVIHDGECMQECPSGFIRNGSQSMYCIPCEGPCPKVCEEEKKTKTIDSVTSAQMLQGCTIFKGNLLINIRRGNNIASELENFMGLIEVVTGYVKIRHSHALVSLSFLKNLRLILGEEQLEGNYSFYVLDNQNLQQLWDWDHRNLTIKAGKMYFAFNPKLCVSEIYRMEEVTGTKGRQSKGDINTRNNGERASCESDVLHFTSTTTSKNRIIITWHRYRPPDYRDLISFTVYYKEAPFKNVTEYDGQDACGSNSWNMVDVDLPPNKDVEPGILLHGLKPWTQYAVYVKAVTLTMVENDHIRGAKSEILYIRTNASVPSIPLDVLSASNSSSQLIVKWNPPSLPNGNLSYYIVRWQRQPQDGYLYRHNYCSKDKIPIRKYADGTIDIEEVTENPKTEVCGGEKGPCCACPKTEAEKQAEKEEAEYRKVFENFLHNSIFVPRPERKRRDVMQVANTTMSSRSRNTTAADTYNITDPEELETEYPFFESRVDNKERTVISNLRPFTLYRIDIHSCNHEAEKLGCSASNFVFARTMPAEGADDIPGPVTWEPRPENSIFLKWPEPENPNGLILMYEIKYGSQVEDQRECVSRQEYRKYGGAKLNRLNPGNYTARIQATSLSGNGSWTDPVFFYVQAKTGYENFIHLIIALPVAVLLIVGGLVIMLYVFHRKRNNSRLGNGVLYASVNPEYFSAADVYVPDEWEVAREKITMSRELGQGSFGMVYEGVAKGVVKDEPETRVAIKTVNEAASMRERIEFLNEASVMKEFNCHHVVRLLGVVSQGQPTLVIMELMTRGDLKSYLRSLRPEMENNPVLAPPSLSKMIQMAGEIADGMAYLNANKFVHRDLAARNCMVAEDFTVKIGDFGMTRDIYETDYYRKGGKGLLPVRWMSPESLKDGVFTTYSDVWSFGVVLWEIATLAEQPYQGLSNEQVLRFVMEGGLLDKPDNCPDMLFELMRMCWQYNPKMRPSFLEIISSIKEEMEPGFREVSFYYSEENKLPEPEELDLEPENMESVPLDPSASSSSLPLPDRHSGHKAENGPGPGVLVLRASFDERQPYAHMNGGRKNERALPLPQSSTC
Experiment: radiometric filter-binding kinase assay, Kinase HotSpot
Conditions: compound 0.5 µM; ATP 10 µM
condition met if residual activity is below 90%. condition not met if not; exact matches included in condition not met.

- substanceSmiles: "Ic1cccc(CSc2nnc(-c3ccncc3)o2)c1"
  className: "condition not met"
- substanceSmiles: "Cc1cncc2cccc(S(=O)(=O)N3CCCN(C(=O)CN)C[C@H]3C)c12"
  className: "condition not met"
- substanceSmiles: "COc1ccc2c(c1)c(C1=C(c3c[nH]c4ccccc34)C(=O)NC1=O)cn2CCCN(C)C"
  className: "condition not met"

Q: For this molecule, is residual activity lower than 90%? COc1ccc2c(c1)/C(=C/c1cnc[nH]1)C(O)=N2
Result: condition not met

* * *

Target: MAP3K8 (human)
Assay: radiometric filter-binding kinase assay, Kinase HotSpot
Details: compound 0.5 µM; ATP 10 µM
readoutName: residual activity (%)
// units = %; emit number, no label

- substanceSmiles: "O=C1C(Cl)=C(N2C(=O)CCC2=O)C(=O)c2ccccc21"
  unitAnnotation: "%"
  residual activity: 91.8

Q: Form: Entry = Ic1cccc(CSc2nnc(-c3ccncc3)o2)c1 | System = MAP3K8 (human) | residual activity = ____
Result: 96.1

Q: Form: Entry = COc1ccc(Cl)cc1NC(=O)Nc1cc(C)nc2ccccc12 | System = MAP3K8 (human) | residual activity = ____
Result: 99.5

Q: Form: Entry = COc1cc2ncnc(Nc3ccc(Oc4ccccc4)cc3)c2cc1OC | System = MAP3K8 (human) | residual activity = ____
Result: 68.9

Q: Form: Entry = C[C@@H]1CCN(C(=O)CC#N)C[C@@H]1N(C)c1ncnc2[nH]ccc12 | System = MAP3K8 (human) | residual activity = ____
Result: 93.5

Q: Form: Entry = O=C1Nc2ccc(Br)cc2/C1=C\c1cc2c([nH]1)CCCC2 | System = MAP3K8 (human) | residual activity = ____
Result: 105

* * *

Molecular target: CSK (human)
Test: radiometric filter-binding kinase assay, Kinase HotSpot
Conditions: compound 0.5 µM; ATP 10 µM
readoutName: residual activity (%)
// units = %; emit number, no label

Use these answered entries as a reference point.
- substanceSmiles: "CN(C)S(=O)(=O)c1ccc2c(c1)/C(=C/c1cc3c([nH]1)CCCC3)C(=O)N2"
  testResult: 93.1
- substanceSmiles: "Cc1nc(-c2ccccc2)c(-c2ccncc2)o1"
  testResult: 107
- substanceSmiles: "CN(C)CCCn1cc(C2=C(c3c[nH]c4ccccc34)C(=O)NC2=O)c2ccccc21"
  testResult: 97

Alright, here's another compound for you.
Q: // returns reported residual activity for input COc1ccc(Cl)cc1NC(=O)Nc1cc(C)nc2ccccc12
Result: 99.9

* * *

// residual activity lookup, one value per entry
Molecular target: CDK2 CCNA2 (human) (UniProt P24941+P20248)
Sequence (P20248 whole entry, looked up, other chains not shown): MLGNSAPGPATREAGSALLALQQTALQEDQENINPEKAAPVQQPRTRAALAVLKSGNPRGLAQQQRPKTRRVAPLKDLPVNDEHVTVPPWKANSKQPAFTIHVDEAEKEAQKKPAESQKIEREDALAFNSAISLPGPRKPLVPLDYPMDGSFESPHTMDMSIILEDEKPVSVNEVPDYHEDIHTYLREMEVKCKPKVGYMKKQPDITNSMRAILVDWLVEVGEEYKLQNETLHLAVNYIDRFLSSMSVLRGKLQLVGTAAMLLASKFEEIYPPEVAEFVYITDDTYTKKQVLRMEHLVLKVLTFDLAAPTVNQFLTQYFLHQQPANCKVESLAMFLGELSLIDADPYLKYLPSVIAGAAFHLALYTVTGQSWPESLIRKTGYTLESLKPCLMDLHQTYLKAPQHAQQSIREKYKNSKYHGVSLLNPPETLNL
Experiment: radiometric filter-binding kinase assay, Kinase HotSpot
Details: compound 0.5 µM; ATP 10 µM
// units = %; emit number, no label

- substanceSmiles: "CN(C)CCCn1cc(C2=C(c3c[nH]c4ccccc34)C(=O)NC2=O)c2ccccc21"
  residual activity (%): 85.2
- substanceSmiles: "COc1cc2ncnc(Nc3ccc(OCc4ccccc4)cc3)c2cc1OC"
  residual activity (%): 100
- substanceSmiles: "COc1ccc(S(=O)(=O)N(CCO)c2ccccc2CN(C)C/C=C/c2ccc(Cl)cc2)cc1"
  residual activity (%): 99.7
- substanceSmiles: "Ic1cccc(CSc2nnc(-c3ccncc3)o2)c1"
  residual activity (%): 100
- substanceSmiles: "COc1ccc2c(c1)c(C1=C(c3c[nH]c4ccccc34)C(=O)NC1=O)cn2CCCN(C)C"
  residual activity (%): 112

Q: // returns reported residual activity for input COc1cc2ncnc(Nc3ccc(Oc4ccccc4)cc3)c2cc1OC
Result: 100

Q: // returns reported residual activity for input O=C1c2ccccc2-c2nc3nnnn3nc21
Result: 70.3

Q: // returns reported residual activity for input Cc1cncc2cccc(S(=O)(=O)N3CCCN(C(=O)CN)C[C@H]3C)c12
Result: 98.4

* * *

Biological target: IRAK1 (human) (UniProt P51617)
Sequence (P51617 whole entry, looked up): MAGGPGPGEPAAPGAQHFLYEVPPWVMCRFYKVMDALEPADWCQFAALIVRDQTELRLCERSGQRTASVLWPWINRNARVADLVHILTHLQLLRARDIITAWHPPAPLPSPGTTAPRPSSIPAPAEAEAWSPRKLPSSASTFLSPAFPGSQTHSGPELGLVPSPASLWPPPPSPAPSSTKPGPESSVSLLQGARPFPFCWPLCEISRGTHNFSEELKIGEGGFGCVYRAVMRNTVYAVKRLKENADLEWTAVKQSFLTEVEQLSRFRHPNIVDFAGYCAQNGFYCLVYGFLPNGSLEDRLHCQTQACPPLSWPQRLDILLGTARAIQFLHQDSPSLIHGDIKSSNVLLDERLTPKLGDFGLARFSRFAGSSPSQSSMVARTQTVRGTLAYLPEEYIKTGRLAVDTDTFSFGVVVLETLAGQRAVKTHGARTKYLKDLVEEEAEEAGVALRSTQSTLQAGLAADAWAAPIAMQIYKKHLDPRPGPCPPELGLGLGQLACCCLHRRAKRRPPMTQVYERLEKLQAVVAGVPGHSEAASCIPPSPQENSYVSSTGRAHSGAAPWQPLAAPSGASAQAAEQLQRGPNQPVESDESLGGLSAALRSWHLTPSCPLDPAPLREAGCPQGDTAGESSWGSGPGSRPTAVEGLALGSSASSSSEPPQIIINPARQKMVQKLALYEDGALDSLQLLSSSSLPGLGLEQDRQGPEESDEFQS
Assay: radiometric filter-binding kinase assay, Kinase HotSpot
Details: compound 0.5 µM; ATP 10 µM
readoutName: residual activity (%)
// units = %; emit number, no label

Use these answered entries as a reference point.
- substanceSmiles: "CN(C)c1ccc(/C=C2\\C(=O)Nc3ccccc32)cc1"
  residual activity, %: 102
- substanceSmiles: "NC(=O)c1cccc(-c2cc(Nc3ccc(OC(F)(F)F)cc3)ncn2)c1"
  residual activity, %: 101
- substanceSmiles: "Cn1c2ccccc2c2c3c(c4c5ccccc5n(CCC#N)c4c21)CNC3=O"
  residual activity, %: 6.43
- substanceSmiles: "CN(C)S(=O)(=O)c1ccc2c(c1)/C(=C/c1cc3c([nH]1)CCCC3)C(=O)N2"
  residual activity, %: 5.59

Alright, here's another compound for you.
Q: Form: Entry = COc1cc2ncnc(Nc3ccc(OCc4ccccc4)cc3)c2cc1OC | System = IRAK1 (human) (UniProt P51617) | residual activity = ____
Result: 97.4

* * *

Molecular target: MAP3K14 (human) (UniProt Q99558)
Sequence (Q99558 whole entry, looked up): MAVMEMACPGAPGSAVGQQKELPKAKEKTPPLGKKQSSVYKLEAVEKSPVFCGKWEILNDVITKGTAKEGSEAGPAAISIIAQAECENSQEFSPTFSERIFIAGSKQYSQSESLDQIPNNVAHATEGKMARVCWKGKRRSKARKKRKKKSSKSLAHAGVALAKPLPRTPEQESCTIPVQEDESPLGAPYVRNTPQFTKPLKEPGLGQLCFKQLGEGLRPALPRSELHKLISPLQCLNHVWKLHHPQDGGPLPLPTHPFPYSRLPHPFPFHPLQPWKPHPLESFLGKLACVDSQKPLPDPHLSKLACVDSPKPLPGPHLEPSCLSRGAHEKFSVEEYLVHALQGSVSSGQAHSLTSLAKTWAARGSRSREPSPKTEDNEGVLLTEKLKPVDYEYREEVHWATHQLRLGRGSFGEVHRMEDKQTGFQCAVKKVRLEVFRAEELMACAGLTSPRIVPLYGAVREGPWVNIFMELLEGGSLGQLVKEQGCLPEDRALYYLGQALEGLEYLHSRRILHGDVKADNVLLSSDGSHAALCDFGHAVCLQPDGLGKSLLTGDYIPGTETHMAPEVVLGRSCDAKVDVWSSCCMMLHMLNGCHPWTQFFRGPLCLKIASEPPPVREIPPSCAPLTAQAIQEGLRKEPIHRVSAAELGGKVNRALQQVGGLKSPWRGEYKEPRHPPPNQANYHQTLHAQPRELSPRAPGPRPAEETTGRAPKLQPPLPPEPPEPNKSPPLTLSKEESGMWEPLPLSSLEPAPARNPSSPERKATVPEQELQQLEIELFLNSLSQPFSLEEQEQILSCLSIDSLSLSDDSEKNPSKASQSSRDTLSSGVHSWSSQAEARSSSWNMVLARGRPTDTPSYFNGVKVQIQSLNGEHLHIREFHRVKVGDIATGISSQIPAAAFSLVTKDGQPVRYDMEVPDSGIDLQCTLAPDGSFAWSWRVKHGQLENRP
Assay: radiometric filter-binding kinase assay, Kinase HotSpot
Details: compound 0.5 µM; ATP 10 µM
// residual activity lookup, one value per entry
Answer with the number, then the unit.

Use these answered entries as a reference point.
- substanceSmiles: "O=C1NC(=O)c2c1c1c3ccccc3[nH]c1n1cncc21"
  system: "MAP3K14 (human) (UniProt Q99558)"
  testResult: "83%"
- substanceSmiles: "O=C1Nc2ccc(Br)cc2/C1=C\\c1cc2c([nH]1)CCCC2"
  system: "MAP3K14 (human) (UniProt Q99558)"
  testResult: "112%"
- substanceSmiles: "CS(=O)(=O)CCNCc1ccc(-c2ccc3ncnc(Nc4ccc(OCc5cccc(F)c5)c(Cl)c4)c3c2)o1"
  system: "MAP3K14 (human) (UniProt Q99558)"
  testResult: "109%"

Q: Form: Entry = COc1ccc(Cl)cc1NC(=O)Nc1cc(C)nc2ccccc12 | System = MAP3K14 (human) (UniProt Q99558) | residual activity = ____
Result: 84.9%

Q: Form: Entry = O=C1C(Cl)=C(N2C(=O)CCC2=O)C(=O)c2ccccc21 | System = MAP3K14 (human) (UniProt Q99558) | residual activity = ____
Result: 102%

* * *

Target: VRK1 (human) (UniProt Q99986)
Sequence (Q99986 whole entry, looked up): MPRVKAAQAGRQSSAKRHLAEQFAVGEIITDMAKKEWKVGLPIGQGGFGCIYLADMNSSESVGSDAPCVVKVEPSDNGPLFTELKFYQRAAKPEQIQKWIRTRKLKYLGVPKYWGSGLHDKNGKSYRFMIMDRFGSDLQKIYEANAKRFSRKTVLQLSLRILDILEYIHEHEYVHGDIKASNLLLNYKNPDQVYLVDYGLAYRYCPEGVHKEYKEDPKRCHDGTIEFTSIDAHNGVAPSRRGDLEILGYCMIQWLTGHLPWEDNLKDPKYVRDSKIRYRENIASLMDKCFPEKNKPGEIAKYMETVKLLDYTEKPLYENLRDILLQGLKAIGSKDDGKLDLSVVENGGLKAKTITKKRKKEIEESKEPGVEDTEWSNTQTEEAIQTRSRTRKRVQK
Test: radiometric filter-binding kinase assay, Kinase HotSpot
Conditions: compound 0.5 µM; ATP 10 µM
readoutName: residual activity (%)
// units = %; emit number, no label

Use these answered entries as a reference point.
- substanceSmiles: "Cn1c2ccccc2c2c3c(c4c5ccccc5n(CCC#N)c4c21)CNC3=O"
  residual activity, %: 84
- substanceSmiles: "c1ccc2c(-c3ccncc3)c[nH]c2c1"
  residual activity, %: 101
- substanceSmiles: "Cc1cccc(-c2nc(C(C)(C)C)[nH]c2-c2ccc3c(c2)OCO3)n1"
  residual activity, %: 97.5

Q: // returns reported residual activity for input COc1cc(Nc2c(C#N)cnc3cc(OCCCN4CCN(C)CC4)c(OC)cc23)c(Cl)cc1Cl
Result: 100

* * *

Biological target: CSF1R (human)
Experiment: radiometric filter-binding kinase assay, Kinase HotSpot
Settings: compound 0.5 µM; ATP 10 µM
readoutName: residual activity (%)
// units = %; emit number, no label

Q: // returns reported residual activity for input Cc1nc(-c2ccccc2)c(-c2ccncc2)o1
Result: 104

Q: // returns reported residual activity for input O=C(c1cc2cc(O)ccc2[nH]1)c1cc2cc(O)ccc2[nH]1
Result: 97.7

Q: // returns reported residual activity for input Ic1cccc(CSc2nnc(-c3ccncc3)o2)c1
Result: 104

Q: // returns reported residual activity for input CCCCc1c(-c2ccc(OC)cc2)[nH]c2nccnc12
Result: 37.7

Q: // returns reported residual activity for input C[C@@H]1CCN(C(=O)CC#N)C[C@@H]1N(C)c1ncnc2[nH]ccc12
Result: 101

Q: // returns reported residual activity for input Cc1cncc2cccc(S(=O)(=O)N3CCCN(C(=O)CN)C[C@H]3C)c12
Result: 95.6

* * *

Target: MARK3 (human) (UniProt P27448)
Sequence (P27448 whole entry, looked up): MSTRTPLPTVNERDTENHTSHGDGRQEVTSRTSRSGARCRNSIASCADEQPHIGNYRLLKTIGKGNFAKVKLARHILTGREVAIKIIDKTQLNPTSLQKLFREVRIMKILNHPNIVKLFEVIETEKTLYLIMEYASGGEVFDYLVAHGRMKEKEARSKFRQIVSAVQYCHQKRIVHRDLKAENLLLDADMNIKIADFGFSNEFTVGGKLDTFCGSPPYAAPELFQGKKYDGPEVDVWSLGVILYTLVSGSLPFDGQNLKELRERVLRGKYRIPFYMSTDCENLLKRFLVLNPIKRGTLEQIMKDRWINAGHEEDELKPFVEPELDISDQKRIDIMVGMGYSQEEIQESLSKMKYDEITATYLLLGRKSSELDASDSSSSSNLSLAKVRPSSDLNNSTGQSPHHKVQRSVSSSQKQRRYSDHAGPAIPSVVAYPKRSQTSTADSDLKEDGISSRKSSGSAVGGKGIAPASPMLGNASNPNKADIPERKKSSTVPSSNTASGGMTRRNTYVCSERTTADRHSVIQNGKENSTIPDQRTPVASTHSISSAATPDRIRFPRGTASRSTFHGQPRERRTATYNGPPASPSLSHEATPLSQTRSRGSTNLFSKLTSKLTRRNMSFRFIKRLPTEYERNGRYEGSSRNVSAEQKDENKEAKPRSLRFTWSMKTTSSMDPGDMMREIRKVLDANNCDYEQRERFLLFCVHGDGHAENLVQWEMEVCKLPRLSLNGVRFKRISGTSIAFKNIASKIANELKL
Assay: radiometric filter-binding kinase assay, Kinase HotSpot
Details: compound 0.5 µM; ATP 10 µM
// residual activity lookup, one value per entry
// units = %; emit number, no label

Use these answered entries as a reference point.
- substanceSmiles: "CC(C)(C)c1cc(C=C(C#N)C#N)cc(Br)c1O"
  testResult: 105
- substanceSmiles: "CCCCc1c(-c2ccc(OC)cc2)[nH]c2nccnc12"
  testResult: 91.2
- substanceSmiles: "N#Cc1c[nH]c2c[nH]/c(=N\\Cc3cccnc3)cc2/c1=N\\c1ccc(F)c(Cl)c1"
  testResult: 101

Q: Form: Entry = COc1cc2ncnc(Nc3ccc(OCc4ccccc4)cc3)c2cc1OC | System = MARK3 (human) (UniProt P27448) | residual activity = ____
Result: 106

Q: Form: Entry = Fc1ccc(-c2nc3n(c2-c2ccncc2)CCS3)cc1 | System = MARK3 (human) (UniProt P27448) | residual activity = ____
Result: 88.9

Q: Form: Entry = NC(=O)c1cccc(-c2cc(Nc3ccc(OC(F)(F)F)cc3)ncn2)c1 | System = MARK3 (human) (UniProt P27448) | residual activity = ____
Result: 100

Q: Form: Entry = Cc1cccc(-c2nc(C(C)(C)C)[nH]c2-c2ccc3c(c2)OCO3)n1 | System = MARK3 (human) (UniProt P27448) | residual activity = ____
Result: 73.9

Q: Form: Entry = O=C1C(Cl)=C(N2C(=O)CCC2=O)C(=O)c2ccccc21 | System = MARK3 (human) (UniProt P27448) | residual activity = ____
Result: 87.8

Q: Form: Entry = CN(C)S(=O)(=O)c1ccc2c(c1)/C(=C/c1cc3c([nH]1)CCCC3)C(=O)N2 | System = MARK3 (human) (UniProt P27448) | residual activity = ____
Result: 68.9
